# assay_overview: compound binding in COS7 lysate, probe aLAP1, primary screen, cell lysate, small-molecule microarray (AID 1124);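 further: lysate comes from COS7 cells expressing LAP1 and is applied at 0.3 µg/mL; score merges spot fluorescence near 667 nm with signal-to-noise over triplicate slides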
# condition_notes: probe aLAP1, fluorescence, higher = more signal
assay_readout: composite z-score
I'd appreciate a reply containing only the number, no unit.

Field: example entries. Status: answers known.
{"columns": ["compound", "assay_readout", "observed_value"],
 "data": [
  ["CCC1=C2CN(Cc3ccccc3Br)[C@@H]([C@@H](O)Cc3ccccc3)C2C=CCC1 (stereo partly drawn)", "composite z-score", -0.0566],
  ["CO[C@@H]1COC(=O)CC=C[C@@H](C)[C@H](OC)COC(=O)CC=C[C@H]1C", "composite z-score", -0.412],
  ["C=CCC(OC(C)=O)[C@@H]1[C@@H](N(Cc2cccc3ccccc23)C(=O)Cc2ccc(F)cc2)c2cc(OCCCO)ccc2N1C(=O)Cc1ccc2ccccc2c1 (stereo partly drawn)", "composite z-score", -0.27],
  ["COC(=O)[C@@]1(Cc2ccccc2)[C@H]2c3cc(C(=O)N4CCCC4)n(CCN4CNCC4=O)c3C[C@H]2CN1C(=O)c1ccccc1", "composite z-score", 0.808],
  ["COc1cc2c(cc1OC)CN(C(=O)[C@H]1[C@@H]3C(=O)O[C@@H](c4ccccc4)[C@@H](c4ccccc4)N3[C@@H](c3ccc(O)cc3)[C@]13C(=O)Nc1ccc(C#CC4(O)CCCCCC4)cc13)CC2", "composite z-score", 0.876],
  ["C[N+](C)(C)CCCC[C@@H]1NC(=O)[C@H]2C[C@@H](C(=O)NCc3ccc(F)cc3)[C@@H](c3cccc(OCCO)c3)N2C1=O", "composite z-score", 0.633],
  ["CC(C)CN1C(=O)[C@@]2(Cc3ccccc31)c1ccccc1C(=O)N(C1CCCCC1)[C@H]2c1ccc(CO)cc1", "composite z-score", 1.23],
  ["COc1ccc([Si](C)(C)[C@H]2[C@H](CC(=O)N3Cc4ccccc4C[C@H]3CO)O[C@@]3(C(=O)N(Cc4cccc(N5CCOC5=O)c4)c4ccccc43)[C@@H]2C)cc1", "composite z-score", 0.0161],
  ["CC(C)C[C@@H]1NC(=O)[C@H]2C[C@@H](C(=O)NCCCCCC[N+](C)(C)C)[C@@H](c3ccc(O)cc3)N2C1=O", "composite z-score", 0.102],
  ["C=CCOC(=O)[C@@H]1[C@H]2C(=O)O[C@H](c3ccccc3)[C@H](c3ccccc3)N2[C@H](c2ccc(OCCOC(=O)[C@H]3C[C@H]4C(=O)N[C@@H](CCCCNC(C)=O)C(=O)N4[C@H]3c3ccc(O)cc3)cc2)[C@@]12C(=O)Nc1ccc(I)cc12", "composite z-score", 0.278]
]}

QUERY: What composite z-score value was documented for this compound, Cc1ccc(N2C(=O)c3ccccc3[C@](C)(C(=O)NCC(C)C)[C@@H]2c2ccc(CO)cc2)nc1 ?
RESULT: -0.115

QUERY: composite z-score lookup needed for COC(=O)C1=CC(c2ccc(CO)cc2)=CC(c2cccs2)N(Cc2cccc(OC(F)(F)F)c2)C=C1C(=O)OC (stereo not drawn) , thanks.
RESULT: 0.641

QUERY: composite z-score lookup needed for CC(C)CNC(=O)[C@@]1(C)c2ccccc2C(=O)N(Cc2ccc(OC(F)(F)F)cc2)[C@H]1c1ccc(CO)cc1 , thanks.
RESULT: 0.559
